Test system: calf thymus DNA
method_summary: Fluorescence emission and enhancement of compounds bound to calf thymus DNA
Type: binding
experimental_parameters: 0.8 μM compound with 500 ng/ml calf thymus DNA in TE buffer, excited at 488 nm
A collection of molecules and their measured Emission Max
reported_property: Emission Max (nm)

INSERT INTO assay_data (molecule, system_name, endpoint_unit, result_value) VALUES
  ('CCCN(CCCN(C)C)C1=CC(=Cc2sc3ccccc3[n+]2C)c2ccc(OC)cc2N1c1ccccc1.[I-] [Compound 41]', 'calf thymus DNA', 'nm', 517),
  ('CCN(CCC[N+](C)(C)Cc1cccc(OC)c1)C1=C/C(=C/c2sc3ccccc3[n+]2C)c2ccccc2N1c1ccccc1.[Br-].[I-] [Compound 20]', 'calf thymus DNA', 'nm', 523),
  ('CCCCN(CCCN(C)C)C1=C/C(=C/c2sc3ccccc3[n+]2C)c2ccccc2N1c1ccccc1.[I-] [Compound 8]', 'calf thymus DNA', 'nm', 525),
  ('CCCN(CCC[N+](C)(C)CCC)C1=CC(=Cc2sc3ccccc3[n+]2C)c2ccc(OC)cc2N1c1ccccc1.[I-].[I-] [Compound 44]', 'calf thymus DNA', 'nm', 518),
  ('CCN(CCC[N+](C)(C)Cc1ccccc1)C1=C/C(=C/c2sc3ccccc3[n+]2C)c2ccccc2N1c1ccccc1.[Br-].[I-] [Compound 19]', 'calf thymus DNA', 'nm', 524),
  ('CCN(CC[N+](C)(C)Cc1ccccc1)C1=C/C(=C/c2sc3ccccc3[n+]2C)c2ccccc2N1c1ccccc1.[Br-].[I-] [Compound 32]', 'calf thymus DNA', 'nm', 527),
  ('CCN(CC[N+](C)(C)Cc1ccccc1)C1=C/C(=C/c2sc3ccccc3[n+]2C)c2ccc(OC)cc2N1c1ccccc1.[I-].[I-] [Compound 60]', 'calf thymus DNA', 'nm', 522),
  ('C[n+]1c(/C=C2/C=C(CCC[N+](C)(C)C)N(c3ccccc3)c3ccccc32)sc2ccccc21 [Compound 65]', 'calf thymus DNA', 'nm', 530),
  ('CCCN(CCC[N+](C)(C)CC)C1=CC(=Cc2sc3ccccc3[n+]2C)c2ccc(OC)cc2N1c1ccccc1.[I-].[I-] [Compound 43]', 'calf thymus DNA', 'nm', 519),
  ('CCCN(CCC[N+](C)(C)CCO)C1=CC(=Cc2sc3ccccc3[n+]2C)c2ccc(OC)cc2N1c1ccccc1.[I-].[I-] [Compound 45]', 'calf thymus DNA', 'nm', 517),
  ('CN(CCC[N+](C)(C)Cc1ccccc1)C1=C/C(=C/c2sc3ccccc3[n+]2C)c2ccccc2N1c1ccccc1.[I-].[I-] [Compound 26]', 'calf thymus DNA', 'nm', 521),
  ('CCN(CCCN(C)C)C1=CC(=Cc2sc3ccccc3[n+]2C)c2ccc(OC)cc2N1c1ccccc1.[I-] [Compound 48]', 'calf thymus DNA', 'nm', 520),
  ('CCCCN(CCC[N+](C)(C)CCO)C1=C/C(=C/c2sc3ccccc3[n+]2C)c2ccccc2N1c1ccccc1.[I-].[I-] [Compound 12]', 'calf thymus DNA', 'nm', 525);

* * *

Quick list: Fluorescence Enhancement per entry.
Tested on: calf thymus DNA
method_summary: Fluorescence emission and enhancement of compounds bound to calf thymus DNA
Assay type: binding
experimental_parameters: 0.8 μM compound with 500 ng/ml calf thymus DNA in TE buffer; emission area 500-715 nm compared to compound 1, defined as 1000-fold
reported_property: Fluorescence Enhancement (fold)

INSERT INTO assay_data (compound_structure, endpoint_unit, result_value) VALUES
  ('CN(CCC[N+](C)(C)Cc1ccccc1)C1=C/C(=C/c2sc3ccccc3[n+]2C)c2ccccc2N1c1ccccc1.[I-].[I-]', 'fold', 653),
  ('CCN(CCC[N+](C)(C)CC)C1=CC(=Cc2sc3ccccc3[n+]2C)c2ccc(OC)cc2N1c1ccccc1.[I-].[I-]', 'fold', 1020),
  ('CCN(CC[N+](C)(C)CC)C1=C/C(=C/c2sc3ccccc3[n+]2C)c2ccccc2N1c1ccccc1.[Cl-].[I-]', 'fold', 638);

* * *

Listed molecules paired with reported Emission Max
Test system: calf thymus DNA
method_summary: Fluorescence emission and enhancement of compounds bound to calf thymus DNA
Type: binding
experimental_parameters: 0.8 μM compound with 500 ng/ml calf thymus DNA in TE buffer, excited at 488 nm
reported_property: Emission Max (nm)

INSERT INTO measurements (molecule, system_name, result_value) VALUES
  ('CCCN(CCC[N+](C)(C)Cc1cccc(OC)c1)C1=C/C(=C/c2sc3ccccc3[n+]2C)c2ccccc2N1c1ccccc1.[Br-].[Cl-] [Compound 7]', 'calf thymus DNA', 522),
  ('CCC[N+](C)(C)CCCN(CC)C1=CC(=Cc2sc3ccccc3[n+]2C)c2ccc(OC)cc2N1c1ccccc1.[I-].[I-] [Compound 51]', 'calf thymus DNA', 520),
  ('C[n+]1c(/C=C2/C=C(n3cnc4ccccc43)N(c3ccccc3)c3ccccc32)sc2ccccc21.[Cl-] [Compound 63]', 'calf thymus DNA', 543),
  ('CN(C)CCCN(C)C1=C/C(=C/c2sc3ccccc3[n+]2C)c2ccccc2N1c1ccccc1.[I-] [Compound 21]', 'calf thymus DNA', 522),
  ('CCN(CCC[N+](C)(C)CCO)C1=C/C(=C/c2sc3ccccc3[n+]2C)c2ccc(OC)cc2N1c1ccccc1 [Compound 52]', 'calf thymus DNA', 519),
  ('CCCCN(CCCN(C)C)C1=CC(=Cc2sc3ccccc3[n+]2C)c2ccc(OC)cc2N1c1ccccc1.[I-] [Compound 34]', 'calf thymus DNA', 517),
  ('CCC[N+](C)(C)CCN(CC)C1=C/C(=C/c2sc3ccccc3[n+]2C)c2ccc(OC)cc2N1c1ccccc1.[I-].[I-] [Compound 58]', 'calf thymus DNA', 521);

* * *

System: calf thymus DNA
method_summary: Fluorescence emission and enhancement of compounds bound to calf thymus DNA
Format: binding
experimental_parameters: 0.8 μM compound with 500 ng/ml calf thymus DNA in TE buffer, excited at 488 nm
reported_property: Emission Max (nm)

INSERT INTO results (compound, endpoint_unit, result_value) VALUES
  ('CCN(CC[N+](C)(C)CCO)C1=C/C(=C\c2sc3ccccc3[n+]2C)c2ccc(OC)cc2N1c1ccccc1.[I-].[I-] [Compound 59]', 'nm', 520),
  ('CCCCN(CCC[N+](C)(C)Cc1cccc(OC)c1)C1=CC(=Cc2sc3ccccc3[n+]2C)c2ccc(OC)cc2N1c1ccccc1.[Br-].[I-] [Compound 40]', 'nm', 520),
  ('CCCCN(CCC[N+](C)(C)Cc1cccc(OC)c1)C1=C/C(=C/c2sc3ccccc3[n+]2C)c2ccccc2N1c1ccccc1.[Br-].[I-] [Compound 14]', 'nm', 526),
  ('CCCCN(CCC[N+](C)(C)C)C1=CC(=Cc2sc3ccccc3[n+]2C)c2ccc(OC)cc2N1c1ccccc1.[I-].[I-] [Compound 35]', 'nm', 518),
  ('CCN(CCC[N+](C)(C)CCO)C1=C/C(=C/c2sc3ccccc3[n+]2C)c2ccccc2N1c1ccccc1.[I-].[I-] [Compound 18]', 'nm', 524),
  ('CCN(CCC[N+](C)(C)Cc1cccc(OC)c1)C1=CC(=Cc2sc3ccccc3[n+]2C)c2ccc(OC)cc2N1c1ccccc1.[Br-].[I-] [Compound 54]', 'nm', 517);

* * *

Test system: calf thymus DNA
method_summary: Fluorescence emission and enhancement of compounds bound to calf thymus DNA
Type: binding
experimental_parameters: 0.8 μM compound with 500 ng/ml calf thymus DNA in TE buffer; emission area 500-715 nm compared to compound 1, defined as 1000-fold
Here, each record is paired with measured Fluorescence Enhancement data.
reported_property: Fluorescence Enhancement

INSERT INTO results (compound_structure, system_name, result_value) VALUES
  ('CCCCN(CCC[N+](C)(C)Cc1ccccc1)C1=C/C(=C/c2sc3ccccc3[n+]2C)c2ccccc2N1c1ccccc1.[Br-].[I-]', 'calf thymus DNA', '922 fold'),
  ('CCC[N+](C)(C)CCN(CC)C1=C/C(=C/c2sc3ccccc3[n+]2C)c2ccc(OC)cc2N1c1ccccc1.[I-].[I-]', 'calf thymus DNA', '874 fold'),
  ('CCCCN(CCC[N+](C)(C)CCC)C1=C/C(=C/c2sc3ccccc3[n+]2C)c2ccccc2N1c1ccccc1.[I-].[I-]', 'calf thymus DNA', '903 fold');
